ASSAY_SUMMARY: NCI Yeast Anticancer Drug Screen. Data for the cln2 rad14 strain (AID 165);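 note: 0% = growth equal to vehicle treated cultures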
CONDITION_LABEL: S. cerevisiae cln2 rad14 strain, at 50.0 µM, hits give high values
About 79,000 compounds went through this panel and 15% of them were active in at least one assay; those are over-represented in the sample as a whole.
PARAMETER: growth inhibition (%)
Numbers only, in %.

Previously resolved entries follow.
COMPOUND	OBSERVED
O=C(/C=C/c1ccccc1)CC(=O)c1ccccc1.O=C(/C=C/c1ccccc1)CC(=O)c1ccccc1.[Cu]	-35.8
C=CCOc1cc(NC(=S)c2ccoc2C)ccc1OC	-2.7
CCS(=O)(=O)/C=C(\C(=O)c1ccccc1)c1ccccc1	47.2
CCOC1NC(/N=C/c2ccc(OC)cc2)=C(C#N)C1C#N (stereo not drawn)	12.4
Cc1ccc2nc(-c3ccc(-c4nc5ccc(C)cc5o4)c(O)c3)oc2c1	2.95

Give one value of growth inhibition per listed compound.
1. CCC(C)CC(C)C1=NC(C)(C)CC(C)O1 (stereo not drawn)
2. CCCCn1cnc2ccc3[nH]c(C)nc3c2c1=O
3. CN(C)c1ccc(N2C(=S)SC(=Nc3ccccc3)C2=Nc2ccccc2)cc1
4. Cc1c(C)c(O)c(SC(CC(=O)O)C(=O)O)c(C)c1O (stereo not drawn)
5. CCCCCC(=O)Nc1cc(S(=O)(=O)O)cc2cc(S(=O)(=O)O)cc(O)c12
6. Cc1sc2nc3n(c(=O)c2c1C)N=CN(c1ccccc1)C3

1: -16.6; 2: -3.55; 3: 7.05; 4: 1.65; 5: 10.7; 6: -12.8

Give one value of growth inhibition per listed compound.
1. CC(=O)c1cccc(NC(=O)C(=O)C(C(=O)c2ccccc2F)C2OC(=O)c3ccccc32)c1 (stereo not drawn)
2. CC(=O)N[C@@H]1CCC[C@H](NC(C)=O)C1
3. C=CS(=O)CCCCCCC (stereo not drawn)
4. Clc1ccc2c(c1)[nH]c1c2nc2sccn21
5. O=c1c2c(nc3n1CCC3)OC(c1ccccc1)C2 (stereo not drawn)
6. c1ccc2c3c(ccc2c1)CCCC3
7. COc1cc(C2c3cc4c(cc3OC(N3CCCCC3)C2C)OCO4)cc(OC)c1OC (stereo not drawn)

1. 3.7
2. -17.1
3. -68.5
4. 1.15
5. -44.8
6. -8
7. 0.15
